Test system: MV4-11 xenograft
testName: MV4-11 xenograft in immunocompromised mice
Type: in vivo
measurementParameters: MV4-11 xenograft, oral, 150 mg/Kg QD
Where a name gives a salt, the structure may show the parent alone.
Give satisfied when the value for TGI (tumor growth inhibition) is at least 90%. Give not satisfied when it is less.

Solved entries (count: 5):
INSERT INTO assay_data (compound, qualitativelabel) VALUES
  ('CC(C)n1c(N2CCNCC2)nc2c([N+](=O)[O-])c(Br)c(Br)cc21 [Example 2A, hydrochloride]', 'satisfied'),
  ('CCn1c(N2CCC[C@H](N)C2)nc2c([N+](=O)[O-])c(Br)c(Br)cc21', 'not satisfied'),
  ('CC(C)Cn1c(N2CCNCC2)nc2c([N+](=O)[O-])c(Br)c(Br)cc21', 'not satisfied'),
  ('CC(C)n1c(N2CCC[C@H](N)C2)nc2c([N+](=O)[O-])c(Br)c(Br)cc21', 'satisfied'),
  ('CC(C)n1c(N2CC[C@@H](N)C2)nc2c(C#N)c(Br)c(Br)cc21', 'not satisfied');

// switching to the query compound
Query :: Form field: TGI (tumor growth inhibition) at least 90%? Entry: CC(C)n1c(N2CC[C@H](N)C2)nc2c([N+](=O)[O-])c(Br)c(Br)cc21
Result :: not satisfied

* * *

Test system: HEL92 cells
testName: Growth inhibition, MTS assay, HEL92
Type: cell-based, Human
measurementParameters: Homo sapiens; 72 hours, MTS cell viability; read-out: HEL92 ED50
Counter-ions that a name gives are not always drawn.
readoutType: pIC50
Answers are plain numbers, as −log10 of the molar value.

Query :: Endpoint output: pIC50 of CCn1c(N2CCNCC2)nc2c([N+](=O)[O-])c(Br)c(Br)cc21 [Example 1A, hydrochloride] . Value?
Result :: 5.59

* * *

testSystem: CDK2/E (Homo sapiens (Human), UniProt P24941)
testName: ADP-Glo Kinase Assay, CDK2/E
Format: biochemical
measurementParameters: 1 μM compound; read-out: CDK2/E % INH (1 μM)
Counter-ions that a name gives are not always drawn.
Kindly supply the reported inhibition at 1 µM values for the records listed here.
Numbers only, in %.

Below: 3 compounds and their reported inhibition at 1 µM.
INSERT INTO results (compound, testsystem, measureunit, assayvalue) VALUES
  ('CC(C)n1c(N2CC[C@@H](N)C2)nc2c(C#N)c(Br)c(Br)cc21 [Example 1BI]', 'CDK2/E (Homo sapiens (Human), UniProt P24941)', '%', 22),
  ('CC(C)n1c(N2CCNCC2)nc2c(C#N)c(Br)c(Br)cc21 [Example 1BL]', 'CDK2/E (Homo sapiens (Human), UniProt P24941)', '%', 7),
  ('CCn1c(N2CCC(N)CC2)nc2c(C#N)c(Br)c(Br)cc21 [Example 1DS]', 'CDK2/E (Homo sapiens (Human), UniProt P24941)', '%', 47);

Next up:
Query :: Endpoint output: inhibition at 1 µM of CC(C)n1c(N2CCNCC2)nc2c([N+](=O)[O-])c(Br)c(Br)cc21 [Example 2A, hydrochloride] . Value?
Result :: 44

* * *

testSystem: FLT3(D835H) (Homo sapiens (Human), UniProt P36888, D835H)
testName: Binding to FLT3(D835H) mutant (DiscoveRx)
Structures can show the parent of a compound that is named as a salt.
readoutType: pKd
Give bare numbers, as −log10 of the molar value.

Query :: Endpoint output: pKd of CCn1c(N2CCNCC2)nc2c([N+](=O)[O-])c(Br)c(Br)cc21 [Example 1A, hydrochloride] . Value?
Result :: 6.92
